Overview of reported IC50 across a group of molecules:
# system.under.test: Sentrin-specific protease 8 (Homo sapiens, UniProt Q96LD8);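 also: kinetic enzyme assay of SENP8 cleaving a Nedd8 protein substrate, dose-response confirmation of screening hits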
# Sequence (Q96LD8 whole entry): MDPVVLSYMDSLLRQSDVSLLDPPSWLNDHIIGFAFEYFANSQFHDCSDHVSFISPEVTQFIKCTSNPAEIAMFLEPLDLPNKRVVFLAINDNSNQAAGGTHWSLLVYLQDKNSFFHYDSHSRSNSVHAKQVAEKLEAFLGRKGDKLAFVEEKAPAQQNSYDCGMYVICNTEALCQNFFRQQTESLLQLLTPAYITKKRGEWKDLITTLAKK
# Assay type: functional
Calls of active or inactive are those of the source.
assay.readout: IC50

molecule | assay.readout | value
O=C(Nc1ccc(Cl)cc1)c1ccc(CN2CCc3ccccc3C2)cc1 | IC50 | 22.1 µM (active)
O=C1Cc2ccccc2C(=O)N1Cc1cccc(Cl)c1 | IC50 | 0.528 µM (active)
CC1=CC2(O)OCCN(CCO)C2=CC1=O (configuration not stated) | IC50 | 22.3 µM (active)
O=C(COC(=O)c1ccc([N+](=O)[O-])s1)NCCc1ccccc1 | IC50 | 3.23 µM (active)
COc1cccc(N/C([S-])=C(/C(=O)c2ccc(OC(F)F)cc2)[n+]2ccccc2)c1 | IC50 | 3.93 µM (active)
O=C(COC(=O)c1ccc([N+](=O)[O-])o1)NC1CCS(=O)(=O)C1 (configuration not stated) | IC50 | 8.96 µM (active)
COC(=O)c1ccc(C)cc1C1CN=NC12Cc1cc(C)ccc1C2=O (configuration not stated) | IC50 | 13.9 µM (active)

* * *

# experiment: fluconazole-exposed Candida albicans growth modulators – fluorescence, retest, confirmation (AID 2467)
# Assay type: functional, cell-based
Active and inactive are the calls of the source.

compound | EC50
O=C(NNc1ccc(Cl)cc1)c1cccs1 | > 38 µM (not active)
Nc1nonc1-n1nnc(C(=O)N/N=C/c2cc(Cl)ccc2O)c1CN1CCCCCC1 | 0.296 µM (active)
CC(c1ccccc1)N1CCn2c(nc3cc(NS(C)(=O)=O)ccc32)C1 (centres undefined) | > 38 µM (not active)
c1ccc2sc(NN=C3CCCCCC3)nc2c1 | > 38 µM (not active)

* * *

IC50 by entry:
# system.under.test: Sentrin-specific protease 7 (Homo sapiens, UniProt Q9BQF6);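 also: Luminescence-based dose-response confirmation of ultra-high-throughput screening hits, measuring inhibition of SENP7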
# Sequence (Q9BQF6 whole entry): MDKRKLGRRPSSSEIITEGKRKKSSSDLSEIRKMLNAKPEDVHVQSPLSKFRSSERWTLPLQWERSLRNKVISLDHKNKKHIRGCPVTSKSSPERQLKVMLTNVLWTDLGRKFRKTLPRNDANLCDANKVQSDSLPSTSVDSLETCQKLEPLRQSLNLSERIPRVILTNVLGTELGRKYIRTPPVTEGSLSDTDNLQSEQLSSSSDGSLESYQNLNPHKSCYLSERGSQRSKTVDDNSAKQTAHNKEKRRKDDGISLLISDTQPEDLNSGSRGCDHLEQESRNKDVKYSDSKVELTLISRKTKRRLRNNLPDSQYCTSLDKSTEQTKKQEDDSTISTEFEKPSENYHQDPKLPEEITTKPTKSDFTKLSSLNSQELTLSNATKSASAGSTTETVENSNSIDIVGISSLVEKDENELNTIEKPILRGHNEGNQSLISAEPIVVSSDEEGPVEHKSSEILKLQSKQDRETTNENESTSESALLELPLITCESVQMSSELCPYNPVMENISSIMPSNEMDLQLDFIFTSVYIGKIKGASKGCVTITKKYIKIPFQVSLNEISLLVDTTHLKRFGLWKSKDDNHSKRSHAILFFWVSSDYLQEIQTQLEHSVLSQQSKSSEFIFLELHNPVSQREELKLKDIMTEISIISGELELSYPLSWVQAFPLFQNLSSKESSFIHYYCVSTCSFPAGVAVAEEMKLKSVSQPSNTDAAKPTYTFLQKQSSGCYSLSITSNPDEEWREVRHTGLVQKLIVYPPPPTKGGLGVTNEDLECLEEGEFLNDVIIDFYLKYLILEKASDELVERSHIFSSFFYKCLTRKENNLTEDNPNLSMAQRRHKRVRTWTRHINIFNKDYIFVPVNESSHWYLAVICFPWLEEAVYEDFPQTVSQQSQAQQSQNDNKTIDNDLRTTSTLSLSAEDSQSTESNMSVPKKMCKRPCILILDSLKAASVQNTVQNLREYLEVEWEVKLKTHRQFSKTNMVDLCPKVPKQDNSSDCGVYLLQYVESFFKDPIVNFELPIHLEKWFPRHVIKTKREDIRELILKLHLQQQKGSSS
# Format: functional
Active and inactive are the calls of the source.
assay.readout: IC50

compound.structure.string | value
CCOC(=O)c1ccc(NC(=O)/C=C/c2cccs2)cc1 | 4.96 µM (active)
O=[N+]([O-])c1cccc(/C=N/Nc2ccccn2)c1 | 7.65 µM (active)
O=C(COC(=O)c1ccc([N+](=O)[O-])s1)NCCc1ccccc1 | 7.56 µM (active)
O=C(O)c1ccc2cc(-c3ccccc3)[nH]c2c1 | 0.938 µM (active)
CCOC(=O)c1c(NS(=O)(=O)c2ccccc2)n(CCCOC)c2nc3ccccc3nc12 | 1.02 µM (active)

Data credit: ChEMBL document CHEMBL1201862
